Recorded log10 of AC50 values for a group of compounds are listed next.
testTarget: Human KARS (Homo sapiens)
Construct: Human KARS protein (residues 70-584) was expressed and purified; made in house
Sequence (Q15046 70-584): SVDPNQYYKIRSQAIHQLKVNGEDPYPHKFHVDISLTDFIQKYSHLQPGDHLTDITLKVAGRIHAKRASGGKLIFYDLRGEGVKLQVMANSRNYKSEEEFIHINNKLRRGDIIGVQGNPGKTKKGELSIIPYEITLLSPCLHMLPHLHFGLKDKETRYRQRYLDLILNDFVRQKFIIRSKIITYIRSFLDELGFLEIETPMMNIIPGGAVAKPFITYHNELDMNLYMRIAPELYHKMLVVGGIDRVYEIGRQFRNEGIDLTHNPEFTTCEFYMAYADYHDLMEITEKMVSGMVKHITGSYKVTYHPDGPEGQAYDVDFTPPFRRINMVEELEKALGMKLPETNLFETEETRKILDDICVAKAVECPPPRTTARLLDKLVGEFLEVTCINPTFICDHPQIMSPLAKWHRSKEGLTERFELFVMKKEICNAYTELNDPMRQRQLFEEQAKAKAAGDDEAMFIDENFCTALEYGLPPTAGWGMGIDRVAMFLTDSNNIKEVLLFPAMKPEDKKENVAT
protocolDescription: KARS AMP Transcreener FP assay
Assay type: biochemical
conditions: 50 nM human KARS, 20 μM ATP, 50 μM L-Lysine, 1 μM tRNA, 2 h at RT; read-out: Human KARS Transcreener AMP assay Qualified absolute AC50
Lab note - AC50 converted to log10 from values in nM.

These recorded examples may help you get a feel for the data.
CN1c2ccc(F)cc2C(O)CC12CCN(C(=O)NCc1cc(NCCO)c(F)cc1F)CC2 (racemic) [Example 156]    1.37
CN1c2ccc(F)cc2C(O)CC12CCN(C(=O)NCc1ccc(F)c(NCCO)c1)CC2 (stereo not shown) [Example 165]    2.30
Nc1cc(CNC(=O)N2CCC3(CC2)CC(O)c2cc(F)ccc2N3)ccc1F (racemic) [Example 158]    1.62
NC(=O)c1cc(CNC(=O)N2CCC3(CC2)CC(O)c2cc(F)cc(F)c2N3)ccc1F (racemic) [Example 157]    1.53

Note log10 of AC50 for the compound shown: O=C(NC1CC(O)C1)c1cc(CNC(=O)N2CCC3(CC2)CC(O)c2cc(F)ccc2N3)ccc1F (racemic) [Example 162]
1.87

Given the compound CN1c2ccc(F)cc2C(O)CC12CCN(C(=O)NCc1ccc(F)c([C@@H](N)C(F)(F)F)c1)CC2 (mixture of isomers) [Example 167] , write its reported log10 of AC50.
2.96
